pIC50: −log10 of the molar value.
Field: pIC50. System: Epidermal growth factor receptor (Homo sapiens). Provenance: assorted publications.

[
  {
    "Compound": "Fc1ccc(Nc2ncnc3nc(Nc4ccc(CN5CCCCCC5)cc4)sc23)cc1Cl",
    "pIC50": 8.22
  },
  {
    "Compound": "CC(C)c1ccc(N2CC(CS(C)(=O)=O)C2)c2cnc(Nc3ccnc(C#Cc4cccc(O)c4C=O)n3)cc12",
    "pIC50": 7.65
  },
  {
    "Compound": "CC(C)c1nc(-c2ccc(F)c(NS(=O)(=O)c3c(F)cccc3F)c2)c(-c2ccnc(Nc3ccc(N4CCN(CCF)CC4)c(F)c3)n2)s1",
    "pIC50": "6.00 to 7.00"
  },
  {
    "Compound": "CN(C)C/C=C/C(=O)N(C)c1cccc(-n2nc(-c3ccc(Cl)cc3)c3c(N)ncnc32)c1",
    "pIC50": "> 7.00"
  },
  {
    "Compound": "Cc1ccc(Oc2ccc(Nc3ncnc4sc5c(c34)CC(C)N(C(=O)C=CCN(C)C)C5C)cc2C)cn1 (single isomer, unassigned)",
    "pIC50": "< 5.00"
  }
]

Ask: What value of measured pIC50 is listed for `C=CC(=O)Nc1cccc(Oc2nc(Nc3ccc(N4CCOCC4)cc3OC(F)F)ncc2Cl)c1` ?
Reply: 7.52 to 8.00

Ask: Try this compound too: `C=CC(=O)Nc1cccc(N2C(=O)N(C)Cc3cnc(Nc4ccc(N(C)C)cc4OC)nc32)c1`
Reply: ≥ 8.00

Ask: Try this compound too: `C#Cc1cccc(Nc2ncnc3cc(OC)c(NC(=O)CCCC(=O)NO)cc23)c1`
Reply: > 7.00

Ask: Try this compound too: `C#Cc1cccc(Nc2cc(Nc3cccc(NC(=O)C=C)c3)ncn2)c1`
Reply: ≥ 8.00

Ask: Try this compound too: `COCCOc1cc2ncnc(Nc3ccc(C)c(C#N)c3)c2c2c1OCCO2`
Reply: > 6.00

Ask: Try this compound too: COc1cc(N2CCC(N3CCN(C)CC3)CC2)ccc1Nc1ncc(Cl)c(Nc2cccc3c2N(S(C)(=O)=O)C(C)C3)n1 (stereo not drawn)
Reply: 8.64

Ask: Try this compound too: `CC1(C(=O)N2CCC[C@@H](Nc3n[nH]c4nccc(Oc5ccc(C(=O)Nc6ccccn6)cc5)c34)C2)CCOCC1`
Reply: < 5.00

Ask: Try this compound too: `COc1cc(N2CCC3(CC2)CCN(S(C)(=O)=O)CC3)c(C)cc1Nc1nccc(-c2sc(C(C)C)nc2-c2cccc(NS(=O)(=O)c3c(F)cccc3F)c2F)n1`
Reply: 6.00 to 7.00

Ask: Try this compound too: `C=CC(=O)N1CC[C@H](n2cc(-c3cc4cc(C)cc(OC)c4s3)c3c(N)ncnc32)C1`
Reply: < 6.00

Ask: Try this compound too: `COc1cc2ncnc(N[C@H](C)c3ccccc3)c2cc1OCCCCCC(=O)NO`
Reply: > 7.00

* * *

Field: IC50. System: UniProt P00533. Provenance: assorted publications.

[
  {
    "Molecule": "CCN1CCC(Nc2ccc3c(c2)/C(=C(\\c2ccc(C(F)(F)F)c(F)c2)c2nc(C)c[nH]2)C(=O)N3)CC1",
    "Study System": "UniProt P00533",
    "IC50": "< 50 nM"
  }
]

Ask: # query: IC50 | item `COc1cc(N2CCC(N3CCN(C)CC3)CC2)ccc1Nc1ncc(Cl)c(Nc2ccc(Br)c3c2N(S(C)(=O)=O)CC3)n1` | system: UniProt P00533
Reply: 0.64 nM

Ask: Try this molecule too: `COc1cc(/C=C2\CCC/C(=C\c3ccccc3F)C2=O)cc(OC)c1`
Reply: 2170 nM

Ask: Try this molecule too: `O=C(CCOc1ccc2ncnc(Nc3ccc(F)c(Cl)c3)c2c1)NO`
Reply: < 100 nM

Ask: Try this molecule too: `O=C(/C=C/CN1CCOCC1)N1CCOc2c1ccc1ncnc(Nc3ccc(OCc4cccc(F)c4)c(Cl)c3)c21`
Reply: ≤ 50 nM

Ask: Try this molecule too: `CCc1cc(Nc2ncc(Br)c(Nc3ccc(-c4cnc5c(ccn5C)c4)cc3P(C)(C)=O)n2)c(OC)cc1N1CCC(N2CCN(C)CC2)CC1`
Reply: 36.4 nM

Ask: Try this molecule too: `Cc1ccc(Oc2ccc(Nc3ncnc4sc5c(c34)CCN(C(=O)/C=C/CNCc3ccsc3)C5)cc2C)cn1`
Reply: 1000 to 10000 nM

Ask: Try this molecule too: `CCc1cc(Nc2ncc(Br)c(Nc3ccc(-c4cncnc4)cc3P(C)(C)=O)n2)c(OC)cc1N1CCC(N2CCN(C)CC2)CC1`
Reply: 40.8 nM

Ask: Try this molecule too: `CN(C)CCCC(=O)N1CCC[C@@H](Nc2n[nH]c3nccc(Oc4ccc(C(=O)Nc5cc(C(F)(F)F)ccn5)cc4)c23)C1`
Reply: 100 to 1000 nM

Ask: Try this molecule too: `CC#CC(=O)N1CCC[C@@H](Nc2n[nH]c3nccc(Oc4ccc(C(=O)Nc5nc6ccccc6s5)cc4)c23)C1`
Reply: > 10000 nM

Ask: Try this molecule too: `COc1cc(N2CCC3(CCN(C)CC3)CC2)c(Cl)cc1Nc1nc(Nc2cccc3c2N(S(C)(=O)=O)CC3)c2cc[nH]c2n1`
Reply: 109 nM

Ask: Try this molecule too: `C=CC(=O)Nc1cc(-c2c(-c3ccc(N4CCN(C)CC4)cc3)[nH]c3ncc(CC(=O)OC)cc23)ccc1C`
Reply: ≤ 100 nM

Ask: Try this molecule too: `CCc1cc(Nc2ncc(Br)c(Nc3ccc(-n4cc(COC)cn4)cc3P(C)(C)=O)n2)c(OC)cc1N1CCC(N2CCN(C)CC2)CC1`
Reply: 28.2 nM

Ask: Try this molecule too: `COc1cc(N(C)C(=O)/C=C/CN(C)C2CC2)cc(-n2c(=O)n(-c3ccc(Oc4ccccc4)cc3)c3c(N)ncnc32)c1`
Reply: 1000 to 10000 nM

Ask: Try this molecule too: `O=C1Nc2ccc(NC3CCN(CCN4CCOCC4)CC3)cc2/C1=C(\c1cccc(F)c1)c1ncc[nH]1`
Reply: > 5000 nM
